- Study system: T1, human ROR1 on cells (HEK293T-hROR1, PANC-1, A549) (human, UniProt Q01973 30-937)
- T1 construct: whole, on cells; one molecule for the three cell lines; also called huROR1; cell surface ROR1
- T1 sequence (Q01973 30-937): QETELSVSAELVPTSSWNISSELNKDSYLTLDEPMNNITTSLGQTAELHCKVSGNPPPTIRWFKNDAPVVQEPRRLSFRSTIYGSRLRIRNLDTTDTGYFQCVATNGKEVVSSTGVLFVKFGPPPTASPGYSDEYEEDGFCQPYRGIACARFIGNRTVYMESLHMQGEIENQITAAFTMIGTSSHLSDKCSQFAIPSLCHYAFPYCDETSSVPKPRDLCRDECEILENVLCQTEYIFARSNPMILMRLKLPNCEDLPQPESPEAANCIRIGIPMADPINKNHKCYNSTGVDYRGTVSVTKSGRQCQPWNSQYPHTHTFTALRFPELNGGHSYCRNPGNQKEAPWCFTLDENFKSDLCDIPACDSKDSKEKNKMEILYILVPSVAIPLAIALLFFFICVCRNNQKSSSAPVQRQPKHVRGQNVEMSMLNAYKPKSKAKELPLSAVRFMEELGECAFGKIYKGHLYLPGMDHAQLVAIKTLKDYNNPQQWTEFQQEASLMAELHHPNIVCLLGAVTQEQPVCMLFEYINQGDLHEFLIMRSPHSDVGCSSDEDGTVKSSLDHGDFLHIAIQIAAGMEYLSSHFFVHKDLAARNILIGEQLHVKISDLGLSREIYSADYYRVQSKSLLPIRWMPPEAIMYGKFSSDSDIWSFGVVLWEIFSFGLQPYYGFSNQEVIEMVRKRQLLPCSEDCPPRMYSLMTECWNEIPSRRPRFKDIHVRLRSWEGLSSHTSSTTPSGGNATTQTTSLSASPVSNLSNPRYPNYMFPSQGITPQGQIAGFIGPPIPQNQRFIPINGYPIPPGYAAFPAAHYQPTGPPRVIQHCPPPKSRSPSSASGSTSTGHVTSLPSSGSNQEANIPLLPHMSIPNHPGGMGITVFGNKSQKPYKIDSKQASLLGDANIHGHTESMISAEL
- Assay details: flow cytometry, PANC-1 cells
We begin with a simple list: items and their reported MAX(MFI).
A number alone suffices; assume MFI.

binder="PR303191 (antibody, human IgG1, V domains shown, HCAb (heavy chain-only, human IgG1 Fc), no light chain) VH: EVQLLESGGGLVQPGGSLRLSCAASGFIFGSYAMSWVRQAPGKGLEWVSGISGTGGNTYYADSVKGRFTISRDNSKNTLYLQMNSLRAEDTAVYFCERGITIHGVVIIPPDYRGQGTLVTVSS" measured_result=364000
binder="PR303155 (antibody, human IgG1, V domains shown, HCAb (heavy chain-only, human IgG1 Fc), no light chain) VH: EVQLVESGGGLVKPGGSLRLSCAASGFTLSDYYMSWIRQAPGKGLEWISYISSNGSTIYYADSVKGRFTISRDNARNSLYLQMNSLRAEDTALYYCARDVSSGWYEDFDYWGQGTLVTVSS" measured_result=552000

Let's switch to this binder now.
Query :: So what does the record say about MAX(MFI) for PR303147 (antibody, human IgG1, V domains shown, HCAb (heavy chain-only, human IgG1 Fc), no light chain) VH: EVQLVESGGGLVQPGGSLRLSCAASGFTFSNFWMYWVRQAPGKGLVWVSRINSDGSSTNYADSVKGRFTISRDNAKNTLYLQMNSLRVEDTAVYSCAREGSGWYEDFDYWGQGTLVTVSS ?
Result :: 291000
